- System: GM3
- Experiment Summary: GM3 Elisa assay
- Type: cell-based
- Measurement Parameters: Table 3 (title: IC 50 Values); read-out: IC50_uM_Mean
pIC50: −log10 of the molar value.
Recorded pIC50 by entry

Recorded results for 5 compounds are shown here.
                                   compound  system_under_test  readout_type  measured_result
0  COc1ccc(C(=O)CCCCCC(=O)N[C@H](CN2CCC[C@H]2C)C(O)c2ccc3c(c2)OCCO3)cc1 (stereo partly shown)                GM3         pIC50           ≥ 7.00
1  COc1ccc(OCC[C@H](O)N[C@H](CN2C(C)CCCC2C)C(O)c2ccc3c(c2)OCCO3)cc1 (stereo partly shown)                GM3         pIC50     5.00 to 5.52
2  COC[C@@H]1CCCN1C[C@@H](NC(=O)CCCCCC(=O)c1ccc(OC)cc1)C(O)c1ccc2c(c1)OCCO2 (stereo partly shown)                GM3         pIC50     6.00 to 7.00
3  COc1ccc(OCCC(=O)N[C@H](CN2CCCC2)[C@@H](O)c2ccc3c(c2)OCCO3)cc1                GM3         pIC50     5.00 to 5.52
4  CCCCCCCC(=O)N[C@H](CN1CC[C@H](F)C1)[C@H](O)c1ccc2c(c1)OCCO2                GM3         pIC50     5.00 to 5.52

QUERY: // query pIC50 value for entry "COc1ccc(OCCC(=O)N[C@H](CN2[C@H](C)CC[C@@H]2C)[C@H](O)c2ccc3c(c2)OCCO3)cc1"
RESULT: 5.00 to 5.52

QUERY: I'd like to know its pIC50. The compound in question is O=C(CCCCCC(=O)c1ccc(F)cc1)NC(CN1CC[C@H](O)C1)[C@H](O)c1ccc2c(c1)OCCO2 (stereo partly shown)
RESULT: ≥ 7.00
